// provenance: patent US11547681B2

Experiment: in vitro
Conditions: both, human, microsomes, Half-life
Protocol: The reaction mixture, minus cofactors, was prepared as described below. The test article was added into the reaction mixture at a final concentration of 1 μM. […] Half-lives were calculated using GraphPad software, fitting to a single-phase exponential decay equation. Reaction mixture, minus cofactors, was prepared as described below. […] Half-lives were calculated using GraphPad software, fitting to a single-phase exponential decay equation. […]

{"MOLECULE": "CCCCCCCCCCCCCCCC(=O)NCCOC(=O)CCC(=O)OC(COC(=O)CCC)COC(=O)CCC", "half-life at 1 μM": "< 10 min"}
{"MOLECULE": "CCCCC/C=C\\C/C=C\\CCCCCCCC(=O)OCCNC(=O)CCCCCCCCCCCCCCC", "half-life at 1 μM": "> 60 min"}
{"MOLECULE": "CC/C=C\\C/C=C\\C/C=C\\C/C=C\\C/C=C\\CCCC(=O)OCCNC(=O)CCCCCCCCCCCCCCC", "half-life at 1 μM": "> 60 min"}
{"MOLECULE": "CCCCCCCCCCCCCCCC(=O)NCCOC(=O)CCC(=O)OCC(COC(=O)CCCCCCC)OC(=O)CCCCCCC (stereo not drawn) [Compound I-3, PEA-Succinate-Glycerol-Di-Caprylic]", "half-life at 1 μM": "> 60 min"}
{"MOLECULE": "CCCCCCCCCCCCCCCC(=O)NCCOC(=O)CCC(=O)OC(CO)CO", "half-life at 1 μM": "< 10 min"}
{"MOLECULE": "CCCCCCCCCCCCCCCC(=O)NCCOC(=O)CCC(=O)OCC(O)CO (stereo not drawn)", "half-life at 1 μM": "< 1 min"}

---

Experiment: Plasma stability (37° C., pH 7.4), rat
Format: in vitro ADME, Sprague-Dawley rat
Conditions: male, Sprague-Dawley, rat, plasma, pH 7.4, rat plasma, test article 1 μM, 37° C., pH 7.4; read-out: Half-life
// values below are reported half-life at 1 μM

{"COMPOUND": "CC/C=C\\C/C=C\\C/C=C\\C/C=C\\C/C=C\\CCCC(=O)OCCNC(=O)CCCCCCCCCCCCCCC [Compound I-5]", "half-life at 1 μM": "> 2 h"}
{"COMPOUND": "CCCCCCCCCCCCCCCC(=O)NCCOC(=O)CCC(=O)OCC(COC(=O)CCCCCCC)OC(=O)CCCCCCC (stereo not drawn) [Compound I-3, PEA-Succinate-Glycerol-Di-Caprylic]", "half-life at 1 μM": "> 2 h"}
{"COMPOUND": "CCCCCCCCCCCCCCCC(=O)NCCOC(=O)CCC(=O)OC[C@H]1O[C@@](CO)(O[C@H]2O[C@H](CO)[C@@H](O)[C@H](O)[C@H]2O)[C@@H](O)[C@@H]1O [Compound I-7]", "half-life at 1 μM": "< 0.0167 h"}

---

Experiment: in vitro
Conditions: both, human, microsomes, 1 h, 1 μM
OUTCOME_MEASURE: % Remaining of Initial, 60 min

{"COMPOUND": "CCCCCCCCCCCCCCCC(=O)NCCOC(=O)CCC(=O)OCC(COC(=O)CCC)OC(=O)CCC (stereo not shown)", "OBS_VALUE": "<1.0%"}
{"COMPOUND": "CCCCCCCCCCCCCCCC(=O)NCCOC(=O)CCC(=O)OC[C@H]1O[C@@](CO)(O[C@H]2O[C@H](CO)[C@@H](O)[C@H](O)[C@H]2O)[C@@H](O)[C@@H]1O", "OBS_VALUE": "<1.0%"}
{"COMPOUND": "CCCCCCCCCCCCCCCC(=O)NCCOC(=O)CCC", "OBS_VALUE": "<1.0%"}
{"COMPOUND": "CCCCCCCCCCCCCCCC(=O)NCCOC(=O)CCC(=O)OCC(O)CO (stereo not shown)", "OBS_VALUE": "<1.0%"}
